Where do these numbers come from? They come from PubChem BioAssay AID652010.

method-summary: DAX1 (NR0B1) inhibitors on StAR promoter, primary screen, cell-based, luminescence, SF-1 (NR5A1), full-length DAX-1 (AID 652010);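 also: 0% = DAX-1 cells with DMSO and 100% = cells lacking DAX-1 with DMSO; higher inhibition means more luminescence from relief of DAX-1 repression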
measurement-parameters: HEK293T StAR-luciferase reporter, SF-1/DAX-1 repression relief; at 6.8 µM; hits give high values
Screen size: about 370,000 compounds; about 4,100 (1.1%) were called active. For the sample, actives were picked, then their nearest neighbours and some compounds at random.
measurement-kind: inhibition

// below: answered compounds
compound	inhibition
O=c1c2c(nc3n1CCCCC3)sc1c(O)cccc12	4.81% (active)
COc1ccc(C(=O)C2CCCN(C(=O)c3cc(C)on3)C2)cc1F (stereo not drawn)	-0.49% (inactive)

# query: inhibition of entry N=c1c2c3c(sc2nc2n1CCCCC2)CCCC3
0.02% (inactive)

Again, but for COc1cc(OC)c(C(=O)NNC(=O)c2ccc(NS(=O)(=O)c3cccs3)cc2)cc1OC
4.51% (active)

Again, but for C=CCN(C(=O)[C@@H](CCCC)[C@@H](O)c1ccc(Cl)cc1)c1ccccc1
-2.07% (inactive)

Again, but for O=C(Cn1[nH]c(=O)c2ccccc2c1=O)Nc1cccc(-c2nnc3n2CCCCC3)c1
-0.2% (inactive)

* * *

method-summary: DAX1 (NR0B1) inhibitors on StAR promoter, primary screen, cell-based, luminescence, SF-1 (NR5A1), full-length DAX-1 (AID 652010);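 also: 0% = DAX-1 cells with DMSO and 100% = cells lacking DAX-1 with DMSO; higher inhibition means more luminescence from relief of DAX-1 repression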
measurement-parameters: HEK293T StAR-luciferase reporter, SF-1/DAX-1 repression relief; at 6.8 µM; hits give high values
Hit rate of the full screen: of about 370,000 compounds, about 4,100 (1.1%) were called active. This excerpt belongs to a sample that is enriched for actives.
measurement-kind: inhibition (%)
Value expressed in %; do not type the unit.

compound	unit-tag	inhibition
CCn1c(SCC(=O)NCC2CCCO2)nc2ccccc21 (centres undefined)	%	0.35

# query: inhibition of entry O=C(Nc1ccc2c(c1)OCCO2)C1CCCC1
-6.25

Again, but for Cc1cc(OC(=O)NCCc2ccc(F)cc2)ccc1F
-0.8

* * *

method-summary: DAX1 (NR0B1) inhibitors on StAR promoter, primary screen, cell-based, luminescence, SF-1 (NR5A1), full-length DAX-1 (AID 652010);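 also: 0% = DAX-1 cells with DMSO and 100% = cells lacking DAX-1 with DMSO; higher inhibition means more luminescence from relief of DAX-1 repression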
measurement-parameters: HEK293T StAR-luciferase reporter, SF-1/DAX-1 repression relief; at 6.8 µM; hits give high values
About 4,100 (1.1%) of roughly 370,000 compounds were called active. The full list was thinned out, with actives kept by preference.
measurement-kind: inhibition (%)
Value expressed in %; do not type the unit.

compound	measurement-kind	meas-value
CCC(CO)Nc1cccc2c1S(=O)(=O)N(Cc1cn(Cc3ccccc3C(F)(F)F)nn1)Cc1ccccc1O2 (stereo unspecified)	inhibition	0.53
O=C(CCS(=O)(=O)Cc1ccccc1)Nc1ccc2c(c1)OCCO2	inhibition	-0.13
O=C(CSc1nnc(CNC(=O)c2ccc(F)cc2)o1)Nc1ccc2c(c1)OCO2	inhibition	-1.07
Cc1ccnc(NC(=O)CNC(=O)c2ccccc2)c1	inhibition	6.34

# query: inhibition of entry COc1ccc(/C=N/n2nnnc2N)cc1OC
0.23

Again, but for O=C1C(C=NCC2CCCO2)=C(O)c2ccccc21 (stereo unspecified)
4.59

Again, but for CC[C@]12c3[nH]c4cc(CCC(=O)N(C)C)ccc4c3CCN1C(=O)[C@@H](CC(=O)NCCCn1ccnc1)C[C@@H]2C(=O)N1CCN(C(=O)C2CC2)CC1
-0.23
